The reported measurements were obtained from the supplement of paper PMC10899765.

Test system: MCF10A
Assay: 5+ nucleoli phenotype percent effect (relative to siNT 0% and siKIF11 100%); higher = more cells with five or more nucleoli
Settings: 20 nM; 72 h
The entries below are paired with their reported 5+ nucleoli phenotype percent effect.
Answer with a number only, understood to be in %.

Sample answers from the record:
[
  {
    "monomer-sequence": "AACCCAGUGGGCUAUGGAAAUG [hsa-miR-4482-5p]",
    "5+ nucleoli phenotype percent effect [%]": -41
  },
  {
    "monomer-sequence": "AUCAUACAAGGACAAUUUCUUU [hsa-miR-539-3p]",
    "5+ nucleoli phenotype percent effect [%]": -9.08
  },
  {
    "monomer-sequence": "AAAUGUCACCUUUUUGAGAGGA [hsa-miR-513b-3p]",
    "5+ nucleoli phenotype percent effect [%]": -25.5
  },
  {
    "monomer-sequence": "UCAAUAAAUGUCUGUUGAAUU [hsa-miR-95-5p]",
    "5+ nucleoli phenotype percent effect [%]": 26.3
  },
  {
    "monomer-sequence": "CUGUUGCCACUAACCUCAACCU [hsa-miR-744-3p]",
    "5+ nucleoli phenotype percent effect [%]": -44.1
  }
]

[ask] For GCGGGGCUGGGCGCGCG [hsa-miR-4508] , write its 5+ nucleoli phenotype percent effect.
[reply] 29.5

[ask] Answer with the recorded 5+ nucleoli phenotype percent effect for the sequence listed here: CGGGUGGGAGCAGAUCUUAUUGAG [hsa-miR-6766-5p]
[reply] 56.1

[ask] Assign 5+ nucleoli phenotype percent effect to the following record: CCCCAGGGCGACGCGGCGGG [hsa-miR-1915-3p]
[reply] 42.5

[ask] Give reported 5+ nucleoli phenotype percent effect value for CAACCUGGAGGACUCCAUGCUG [hsa-miR-490-3p]
[reply] 55.8

[ask] Fill in 5+ nucleoli phenotype percent effect for record AGGAGGAAUUGGUGCUGGUCUU [hsa-miR-766-5p]
[reply] -33

[ask] Answer with the recorded 5+ nucleoli phenotype percent effect of GCAGAGAACAAAGGACUCAGU [hsa-miR-3919] only.
[reply] -14.9

====

Test system: MCF10A
Test: 5+ nucleoli phenotype percent effect (relative to siNT 0% and siKIF11 100%); higher = more cells with five or more nucleoli
Details: 20 nM; 72 h
// reported 5+ nucleoli phenotype percent effect per item
Respond numerically; units are % and should not be typed.

[
  {
    "monomer-sequence": "GGGCGACAAAGCAAGACUCUUUCUU [hsa-miR-1273a]",
    "property-name": "5+ nucleoli phenotype percent effect",
    "reported-result": -17.3
  },
  {
    "monomer-sequence": "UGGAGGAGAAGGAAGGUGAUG [hsa-miR-765]",
    "property-name": "5+ nucleoli phenotype percent effect",
    "reported-result": 16.3
  },
  {
    "monomer-sequence": "UGAGCCUCUCCUUCCCUCCAG [hsa-miR-6823-3p]",
    "property-name": "5+ nucleoli phenotype percent effect",
    "reported-result": 12.9
  }
]

[ask] Jot down 5+ nucleoli phenotype percent effect (MCF10A) of GAGGCUGAUGUGAGUAGACCACU [hsa-miR-3929] .
[reply] -13.8

[ask] Answer briefly: 5+ nucleoli phenotype percent effect recorded on MCF10A for UCUGGGGUCUUGGGCCAUC [hsa-miR-7155-5p]
[reply] -0.455

[ask] Consider the sequence AGGGACUUUCAGGGGCAGCUGU [hsa-miR-365b-5p] tested on MCF10A; state its 5+ nucleoli phenotype percent effect.
[reply] 19.9

[ask] Give the observed 5+ nucleoli phenotype percent effect of AGGGCCAGAGGAGCCUGGAGUGG [hsa-miR-4726-5p] for MCF10A.
[reply] 18.8

[ask] Under MCF10A, report 5+ nucleoli phenotype percent effect for UGAGAACCACGUCUGCUCUGAG [hsa-miR-589-5p]
[reply] -4.96
